# System: SK-GT-4 (Esophageal Adenocarcinoma)
# experimental.details: combination Emax (second highest fraction inhibited in the dose matrix, 72 h); higher = more inhibition; extreme values may be limits of the assay
Reported values of combination Emax for individual entries

INSERT INTO assay_data (compound, test_system, parameter, value_reported) VALUES
  ('COc1cccc(OCCCN)c1-c1cc(Nc2cnc(C#N)cn2)n[nH]1 [Prexasertib] + C=CCn1c(=O)c2cnc(Nc3ccc(N4CCN(C)CC4)cc3)nc2n1-c1cccc(C(C)(C)O)n1 [AZD1775] (first compound max 1 µM, partner max 1 µM)', 'SK-GT-4 (Esophageal Adenocarcinoma)', 'combination Emax', 0.758),
  ('CCN(CCO)CCCOc1ccc2c(Nc3cc(CC(=O)Nc4cccc(F)c4)[nH]n3)ncnc2c1 [AZD2811] + C[C@@H]1COCCN1C2=NC(=NC(=C2)C3(CC3)[S@](=N)(=O)C)C4=C5C=CNC5=NC=C4 [AZD6738] (first compound max 1 µM, 7x7, partner max 10 µM)', 'SK-GT-4 (Esophageal Adenocarcinoma)', 'combination Emax', 0.583),
  ('COc1cccc(OCCCN)c1-c1cc(Nc2cnc(C#N)cn2)n[nH]1 [Prexasertib] + O=C(c1cc(Cc2n[nH]c(=O)c3ccccc23)ccc1F)N1CCN(C(=O)C2CC2)CC1 [Olaparib] (first compound max 1 µM, 7x7, partner max 10 µM)', 'SK-GT-4 (Esophageal Adenocarcinoma)', 'combination Emax', 0.593);

Then there is this compound:
Prompt: Please look up its combination Emax: COc1nnc2ccc(N3CCC(c4ccc(OCCN5CCN(C)C(=O)[C@H]5C)cc4)CC3)nn12 [AZD5153] + Cc1c2c(nn1C)CSCc1cc(n(C)n1)CSc1cc(c3ccccc3c1)OCCCc1c(C(=O)O)n(C)c3c-2c(Cl)ccc13 [AZD5991] (first compound max 1 µM, 7x7, partner max 1 µM)
Response: 0.53

====

# Tested on: PC-3 (Prostate Carcinoma)
# experimental.details: Bliss excess, mean over the matrix (fraction); higher = more synergy
Satisfied means recorded Bliss excess is -0.07 or above; Not satisfied means it is below -0.07.

Prompt: Check the entry Cc1cc2ncnn2cc1Nc1ncc2c(n1)n(C1CCOCC1)c(=O)n2C [AZD7648] + CCN(CCO)CCCOc1ccc2c(Nc3cc(CC(=O)Nc4cccc(F)c4)[nH]n3)ncnc2c1 [AZD2811] (first compound max 10 µM, 7x7, partner max 1 µM) : does Bliss excess equal or exceed -0.07?
Response: Satisfied

Prompt: Follow-up item: CCN(CCO)CCCOc1ccc2c(Nc3cc(CC(=O)Nc4cccc(F)c4)[nH]n3)ncnc2c1 [AZD2811] + C=CCn1c(=O)c2cnc(Nc3ccc(N4CCN(C)CC4)cc3)nc2n1-c1cccc(C(C)(C)O)n1 [AZD1775] (first compound max 1 µM, partner max 1 µM)
Response: Satisfied

Prompt: Follow-up item: Cc1c2c(nn1C)CSCc1cc(n(C)n1)CSc1cc(c3ccccc3c1)OCCCc1c(C(=O)O)n(C)c3c-2c(Cl)ccc13 [AZD5991] + Cc1cc2ncnn2cc1Nc1ncc2c(n1)n(C1CCOCC1)c(=O)n2C [AZD7648] (first compound max 1 µM, 7x7, partner max 10 µM)
Response: Not satisfied

Prompt: Follow-up item: C=CCn1c(=O)c2cnc(Nc3ccc(N4CCN(C)CC4)cc3)nc2n1-c1cccc(C(C)(C)O)n1 [AZD1775] + O=C(c1cc(Cc2n[nH]c(=O)c3ccccc23)ccc1F)N1CCN(C(=O)C2CC2)CC1 [Olaparib] (first compound max 1 µM, partner max 10 µM)
Response: Satisfied

Prompt: Follow-up item: Cc1c2c(nn1C)CSCc1cc(n(C)n1)CSc1cc(c3ccccc3c1)OCCCc1c(C(=O)O)n(C)c3c-2c(Cl)ccc13 [AZD5991] + Cn1cnc2c(F)c(Nc3ccc(Br)cc3Cl)c(C(=O)NOCCO)cc21 [Selumetinib] (first compound max 1 µM, 7x7, partner max 3 µM)
Response: Satisfied

====

Reported values of Bliss excess for individual entries
# System: NCI-H929 (Plasma Cell Myeloma)
# experimental.details: Bliss excess, mean over the matrix (fraction); higher = more synergy
Please reply with the number alone, leaving off any unit.

Prompt: Please look up its Bliss excess: Cc1cc2ncnn2cc1Nc1ncc2c(n1)n(C1CCOCC1)c(=O)n2C [AZD7648] + CCN(CCO)CCCOc1ccc2c(Nc3cc(CC(=O)Nc4cccc(F)c4)[nH]n3)ncnc2c1 [AZD2811] (first compound max 10 µM, 7x7, partner max 1 µM)
Response: -0.0223

Prompt: Follow-up item: CCc1c2c(nc3ccc(O)cc13)-c1cc3c(c(=O)n1C2)COC(=O)[C@]3(O)CC [SN-38] + CN(C)CCCOc1ccc(-c2ccc3ncc4c(c3c2)n(C2CCOCC2)c(=O)n4C)cn1 [AZD0156] (first compound max 0.3 µM, 7x7, partner max 1 µM)
Response: -0.089

Prompt: Follow-up item: Cc1c2c(nn1C)CSCc1cc(n(C)n1)CSc1cc(c3ccccc3c1)OCCCc1c(C(=O)O)n(C)c3c-2c(Cl)ccc13 [AZD5991] + Cc1cc2ncnn2cc1Nc1ncc2c(n1)n(C1CCOCC1)c(=O)n2C [AZD7648] (first compound max 1 µM, 7x7, partner max 10 µM)
Response: 0.0091

Prompt: Follow-up item: CCc1c2c(nc3ccc(O)cc13)-c1cc3c(c(=O)n1C2)COC(=O)[C@]3(O)CC [SN-38] + O=C(c1cc(Cc2n[nH]c(=O)c3ccccc23)ccc1F)N1CCN(C(=O)C2CC2)CC1 [Olaparib] (first compound max 0.3 µM, 7x7, partner max 10 µM)
Response: 0.0505

Prompt: Follow-up item: CC1(C)CCC(CN2CCN(c3ccc(C(=O)NS(=O)(=O)c4ccc(NCC5CCOCC5)c([N+](=O)[O-])c4)c(Oc4cnc5[nH]ccc5c4)c3)CC2)=C(c2ccc(Cl)cc2)C1 [Venetoclax] + CCN(CCO)CCCOc1ccc2c(Nc3cc(CC(=O)Nc4cccc(F)c4)[nH]n3)ncnc2c1 [AZD2811] (first compound max 1 µM, 7x7, partner max 1 µM)
Response: 0.101

Prompt: Follow-up item: C[C@@H](c1ccc2nccn2c1)n1nnc2ncc(-c3cnn(C)c3)nc21 [Savolitinib] + CC1(C)CCC(CN2CCN(c3ccc(C(=O)NS(=O)(=O)c4ccc(NCC5CCOCC5)c([N+](=O)[O-])c4)c(Oc4cnc5[nH]ccc5c4)c3)CC2)=C(c2ccc(Cl)cc2)C1 [Venetoclax] (first compound max 1 µM, 7x7, partner max 1 µM)
Response: 0.0439

Prompt: Follow-up item: C=CCn1c(=O)c2cnc(Nc3ccc(N4CCN(C)CC4)cc3)nc2n1-c1cccc(C(C)(C)O)n1 [AZD1775] + C[C@@H]1COCCN1C2=NC(=NC(=C2)C3(CC3)[S@](=N)(=O)C)C4=C5C=CNC5=NC=C4 [AZD6738] (first compound max 1 µM, partner max 10 µM)
Response: -0.0042

Prompt: Follow-up item: COc1nnc2ccc(N3CCC(c4ccc(OCCN5CCN(C)C(=O)[C@H]5C)cc4)CC3)nn12 [AZD5153] + CC1(C)CCC(CN2CCN(c3ccc(C(=O)NS(=O)(=O)c4ccc(NCC5CCOCC5)c([N+](=O)[O-])c4)c(Oc4cnc5[nH]ccc5c4)c3)CC2)=C(c2ccc(Cl)cc2)C1 [Venetoclax] (first compound max 1 µM, 7x7, partner max 1 µM)
Response: 0.0001

Prompt: Follow-up item: CN(C)CCCOc1ccc(-c2ccc3ncc4c(c3c2)n(C2CCOCC2)c(=O)n4C)cn1 [AZD0156] + C=CCn1c(=O)c2cnc(Nc3ccc(N4CCN(C)CC4)cc3)nc2n1-c1cccc(C(C)(C)O)n1 [AZD1775] (first compound max 1 µM, partner max 1 µM)
Response: -0.0464

====

# Tested on: COR-L279 (Small Cell Lung Carcinoma)
# experimental.details: combination Emax (second highest fraction inhibited in the dose matrix, 72 h); higher = more inhibition; extreme values may be limits of the assay
condition met means recorded combination Emax is 0.9 or above; condition not met means it is below 0.9.

INSERT INTO assay_data (compound, test_system, label_value) VALUES
  ('CS(=O)(=O)CCNCc1ccc(-c2ccc3ncnc(Nc4ccc(OCc5cccc(F)c5)c(Cl)c4)c3c2)o1 [Lapatinib] + Cn1cnc2c(F)c(Nc3ccc(Br)cc3Cl)c(C(=O)NOCCO)cc21 [Selumetinib] (first compound max 10 µM, 7x7, partner max 10 µM)', 'COR-L279 (Small Cell Lung Carcinoma)', 'condition not met'),
  ('CCN(CCO)CCCOc1ccc2c(Nc3cc(CC(=O)Nc4cccc(F)c4)[nH]n3)ncnc2c1 [AZD2811] + C[C@@H]1COCCN1C2=NC(=NC(=C2)C3(CC3)[S@](=N)(=O)C)C4=C5C=CNC5=NC=C4 [AZD6738] (first compound max 1 µM, 7x7, partner max 10 µM)', 'COR-L279 (Small Cell Lung Carcinoma)', 'condition not met'),
  ('Cn1cnc2c(F)c(Nc3ccc(Br)cc3Cl)c(C(=O)NOCCO)cc21 [Selumetinib] + C[C@@H]1COCCN1C2=NC(=NC(=C2)C3(CC3)[S@](=N)(=O)C)C4=C5C=CNC5=NC=C4 [AZD6738] (first compound max 10 µM, 7x7, partner max 10 µM)', 'COR-L279 (Small Cell Lung Carcinoma)', 'condition not met');

Prompt: Check the entry C=CCn1c(=O)c2cnc(Nc3ccc(N4CCN(C)CC4)cc3)nc2n1-c1cccc(C(C)(C)O)n1 [AZD1775] + Nc1ccn([C@@H]2O[C@H](CO)[C@@H](O)C2(F)F)c(=O)n1 [Gemcitabine] (first compound max 1 µM, partner max 0.3 µM) : does combination Emax equal or exceed 0.9?
Response: condition met

Prompt: Follow-up item: N#Cc1cnc(Nc2cc(NC[C@H]3CNCCO3)c(C(F)(F)F)cn2)cn1 [SRA737] + Nc1ccn([C@@H]2O[C@H](CO)[C@@H](O)C2(F)F)c(=O)n1 [Gemcitabine] (first compound max 10 µM, 7x7, partner max 0.3 µM)
Response: condition met

Prompt: Follow-up item: NC1(C(=O)N[C@@H](CCO)c2ccc(Cl)cc2)CCN(c2ncnc3[nH]ccc23)CC1 [Capivasertib] + CC(=O)c1c(C)c2cnc(Nc3ccc(N4CCNCC4)cn3)nc2n(C2CCCC2)c1=O [Palbociclib] (first compound max 10 µM, 7x7, partner max 10 µM)
Response: condition not met

Prompt: Follow-up item: O=C(c1cc(Cc2n[nH]c(=O)c3ccccc23)ccc1F)N1CCN(C(=O)C2CC2)CC1 [Olaparib] + Cc1c2c(nn1C)CSCc1cc(n(C)n1)CSc1cc(c3ccccc3c1)OCCCc1c(C(=O)O)n(C)c3c-2c(Cl)ccc13 [AZD5991] (first compound max 10 µM, 7x7, partner max 1 µM)
Response: condition met

Prompt: Follow-up item: CN(CCO)CC[C@H](CSc1ccccc1)Nc1ccc(S(=O)(=O)NC(=O)c2ccc(N3CCC([C@@H](O)c4ccccc4-c4ccc(Cl)cc4)CC3)cc2)cc1S(=O)(=O)C(F)(F)F [AZD4320] + CS(=O)(=O)CCNCc1ccc(-c2ccc3ncnc(Nc4ccc(OCc5cccc(F)c5)c(Cl)c4)c3c2)o1 [Lapatinib] (first compound max 1 µM, 7x7, partner max 10 µM)
Response: condition met

Prompt: Follow-up item: CN(CCO)CC[C@H](CSc1ccccc1)Nc1ccc(S(=O)(=O)NC(=O)c2ccc(N3CCC([C@@H](O)c4ccccc4-c4ccc(Cl)cc4)CC3)cc2)cc1S(=O)(=O)C(F)(F)F [AZD4320] + C[C@@H](Nc1cc(F)cc(F)c1)c1cc(C(=O)N(C)C)cc2c(=O)cc(N3CCOCC3)oc12 [AZD8186] (first compound max 1 µM, 7x7, partner max 3 µM)
Response: condition met

Prompt: Follow-up item: Cc1cc2ncnn2cc1Nc1ncc2c(n1)n(C1CCOCC1)c(=O)n2C [AZD7648] + CCN(CCO)CCCOc1ccc2c(Nc3cc(CC(=O)Nc4cccc(F)c4)[nH]n3)ncnc2c1 [AZD2811] (first compound max 10 µM, 7x7, partner max 1 µM)
Response: condition not met

Every entry's value here was drawn from the supplement of paper PMC11061612.
